- Tested on: LOX IMVI melanoma
- ASSAY INFO: NCI-60 one-dose screen, 48 h
- CONDITION DETAILS: 10 µM unless noted
About 83,000 compounds went through this panel and 20% of them were active in at least one assay; those are over-represented in the sample as a whole. Calls of active or inactive are those of the source. The calls were made as follows: active = growth percent below 10; inactive = the rest.
Classes used: active, inactive

{"COMPOUND": "O=C1CC(c2ccccc2)Cc2nc3ccc(Br)cc3cc21 (centres undefined)", "TESTED TARGET": "LOX IMVI melanoma", "ASSIGNED CATEGORY": "inactive"}
{"COMPOUND": "C#C[C@]1(O)CC[C@H]2[C@@H]3CC=C4c5nc(Nc6ccccc6[N+](=O)[O-])sc5CC[C@]4(C)[C@H]3CC[C@@]21C", "TESTED TARGET": "LOX IMVI melanoma", "ASSIGNED CATEGORY": "inactive"}
{"COMPOUND": "CN(C)CCOc1ccc(/C(=C(/CCCl)c2ccccc2)c2ccccc2)cc1", "TESTED TARGET": "LOX IMVI melanoma", "ASSIGNED CATEGORY": "active"}
{"COMPOUND": "COC(=O)[C@]12CCC(C)(C)C[C@H]1C1=CC[C@@H]3[C@@]4(C)C/C(=C/c5cccnc5)C(=O)C(C)(C)[C@@H]4CC[C@@]3(C)[C@]1(C)CC2", "TESTED TARGET": "LOX IMVI melanoma", "ASSIGNED CATEGORY": "active"}
{"COMPOUND": "Cc1ccc(S(=O)(=O)N/N=C2\\CC3CCC2(C)C3(C)C)cc1 (centres undefined)", "TESTED TARGET": "LOX IMVI melanoma", "ASSIGNED CATEGORY": "inactive"}
{"COMPOUND": "Clc1ccccc1/C=N\\Nc1ccccn1", "TESTED TARGET": "LOX IMVI melanoma", "ASSIGNED CATEGORY": "inactive"}
{"COMPOUND": "CSc1nc2c(c(=O)n1C)C1(C(=O)N(Cc3ccccc3)c3ccccc31)c1c(nc(SC)n(C)c1=O)N2", "TESTED TARGET": "LOX IMVI melanoma", "ASSIGNED CATEGORY": "inactive"}
{"COMPOUND": "COc1cccc(-c2[nH]c(=S)ncc2C(=O)c2ccccc2)c1", "TESTED TARGET": "LOX IMVI melanoma", "ASSIGNED CATEGORY": "inactive"}
{"COMPOUND": "CCOC(=O)Nc1ccc2c(c1)/C(=N\\NC(=S)NC)c1ccccc1-2", "TESTED TARGET": "LOX IMVI melanoma", "ASSIGNED CATEGORY": "inactive"}

----------
- Tested on: RPMI-8226 leukemia
- ASSAY INFO: NCI-60 one-dose screen, 48 h (100 = growth as untreated, 0 = no growth, -100 = all killed)
- CONDITION DETAILS: 10 µM unless noted
About 83,000 compounds went through this panel and 20% of them were active in at least one assay; those are over-represented in the sample as a whole. Activity calls are given as the source filed them. The calls were made as follows: active = growth percent below 10; inactive = the rest.
# growth annotations
ASSAY READOUT: growth

{"MOLECULE": "NC(=O)c1cccc(-c2ccc(S(=O)(=O)Nc3ccc4c(c3)N(C(=O)C3CC3)CCC4)cc2)c1", "TESTED TARGET": "RPMI-8226 leukemia", "RESULT": "43.7% (inactive)"}
{"MOLECULE": "COC(=O)[C@]1(C)CC[C@]2(C)CC[C@]3(C)C(=CC(=O)[C@@H]4[C@@]5(C)CCC(=O)NC(C)(C)[C@@H]5CC[C@]43C)[C@@H]2C1", "TESTED TARGET": "RPMI-8226 leukemia", "RESULT": "-44.5% [100 µM] (active)"}
{"MOLECULE": "Cc1nc(-c2ccccc2)sc1CC#N", "TESTED TARGET": "RPMI-8226 leukemia", "RESULT": "109% (inactive)"}
{"MOLECULE": "C=C(C)[C@@H]1CC[C@]2(C(=O)OC)CC[C@]3(C)[C@H](CC[C@@H]4[C@@]5(C)CC/C(=N\\OCCC(=NCCC#N)NOCCC#N)C(C)(C)[C@@H]5CC[C@]43C)[C@@H]12", "TESTED TARGET": "RPMI-8226 leukemia", "RESULT": "3.28% [100 µM] (active)"}
{"MOLECULE": "CC(C)OC(=O)Nc1cc(F)ccc1F", "TESTED TARGET": "RPMI-8226 leukemia", "RESULT": "103% (inactive)"}
{"MOLECULE": "COc1ccc(C2NC(=O)C(C#N)c3c2sc2c(F)cccc32)cc1 (stereo not drawn)", "TESTED TARGET": "RPMI-8226 leukemia", "RESULT": "63.2% (inactive)"}
{"MOLECULE": "COc1ccc(C(=O)CSc2nnc(-c3cc(-c4ccccc4)nc4ccccc34)o2)cc1", "TESTED TARGET": "RPMI-8226 leukemia", "RESULT": "121% (inactive)"}
{"MOLECULE": "CCn1cc(-c2cc(-c3ccc(Cl)cc3)nc(N)n2)c(-c2ccc(Br)cc2)n1", "TESTED TARGET": "RPMI-8226 leukemia", "RESULT": "66.2% (inactive)"}
{"MOLECULE": "Nc1nc(N)c2c(n1)NC(c1ccc(F)cc1)C1CCc3ccccc3C1=N2 (stereo not drawn)", "TESTED TARGET": "RPMI-8226 leukemia", "RESULT": "42.3% (inactive)"}
{"MOLECULE": "CCOc1ccc(/C=C(\\C#N)c2cc3ccccc3[nH]2)cc1", "TESTED TARGET": "RPMI-8226 leukemia", "RESULT": "79.7% (inactive)"}
{"MOLECULE": "C[C@H]1[C@H](C)CC[C@]2(C(=O)N3CCN(C)CC3)CC[C@]3(C)C(=CC[C@@H]4[C@@]5(C)C/C(=C/c6ccco6)C(=O)C(C)(C)[C@@H]5CC[C@]43C)[C@H]12", "TESTED TARGET": "RPMI-8226 leukemia", "RESULT": "19.5% [100 µM] (inactive)"}
{"MOLECULE": "Clc1ccc2nc(-c3ccc(-c4ccc(/C=N/NC5=NCCN5)cc4)s3)cn2c1", "TESTED TARGET": "RPMI-8226 leukemia", "RESULT": "53.5% (inactive)"}
{"MOLECULE": "Cn1cc(-c2nnc(-c3cn(C)c4ncc(Br)cc34)o2)c2ccccc21", "TESTED TARGET": "RPMI-8226 leukemia", "RESULT": "88.5% (inactive)"}
{"MOLECULE": "CCCc1cc2cc(-n3nc(C)c4c3CC(C)(C)CC4=O)cc(NC3CCSCC3)c2c(=O)[nH]1", "TESTED TARGET": "RPMI-8226 leukemia", "RESULT": "49.9% (inactive)"}
{"MOLECULE": "C#C[C@]1(O)CC[C@H]2[C@@H]3CC=C4c5nc(Nc6ccc(OC)cc6OC)sc5CC[C@]4(C)[C@H]3CC[C@@]21C", "TESTED TARGET": "RPMI-8226 leukemia", "RESULT": "-26.1% (active)"}
{"MOLECULE": "CC1Cc2c(Cl)ncnc2N(C)c2ccc(Cl)cc21 (stereo not drawn)", "TESTED TARGET": "RPMI-8226 leukemia", "RESULT": "-3.81% (active)"}
{"MOLECULE": "NC(=O)CC1C=CCC1 (stereo not drawn)", "TESTED TARGET": "RPMI-8226 leukemia", "RESULT": "96.5% (inactive)"}
{"MOLECULE": "C=C(C)[C@@H]1CC[C@]2(C(N)=O)CC[C@]3(C)[C@H](CC[C@@H]4[C@@]5(C)C/C(=C/c6cccnc6)[C@H](O)C(C)(C)[C@@H]5CC[C@]43C)[C@@H]12", "TESTED TARGET": "RPMI-8226 leukemia", "RESULT": "13.1% [100 µM] (inactive)"}
